# System: A204
# assayMethodText: Induction of klf2 promoter gene in human A204 cells assessed as percent induction activity at 10 uM relative to SNDX-275
# Assay type: functional
Overview of recorded Activity for various compounds

compound	measuredTarget	Activity / %
N#Cc1ccc(-c2ccc(NC(=O)C(NCCN3CCCCC3)c3ccc(/C=C/C(=O)Nc4ccccc4N)cc3)cc2)cc1 (stereo unspecified)	A204	92
Nc1ccccc1NC(=O)/C=C/c1ccc(C(NCCN2CCCCC2)C(=O)Nc2ccc(-c3ccc(C4CC4)cc3)cc2)cc1 (stereo unspecified)	A204	90
CN(CCN1CCOCC1)C(C(=O)Nc1ccc(C(F)(F)F)cc1)c1ccc(/C=C/C(=O)Nc2ccccc2N)cc1 (stereo unspecified)	A204	82
CN(C)CCNC(C(=O)Nc1ccc(C(F)(F)F)cc1)c1ccc(/C=C/C(=O)Nc2ccccc2N)cc1 (stereo unspecified)	A204	93
Nc1ccccc1NC(=O)/C=C/c1ccc(C(NCCCN2CCOCC2)C(=O)Nc2ccc(OC(F)(F)F)cc2)cc1 (stereo unspecified)	A204	58
Nc1ccccc1NC(=O)/C=C/c1ccc(C(NCCC2CCOCC2)C(=O)Nc2ccc(C(F)(F)F)cc2)cc1 (stereo unspecified)	A204	58
Nc1ccccc1NC(=O)/C=C/c1ccc(C(NCCN2CCCCC2)C(=O)Nc2ccc(-c3ccc(C(F)(F)F)c(F)c3)cc2)cc1 (stereo unspecified)	A204	54
Nc1ccccc1NC(=O)/C=C/c1ccc(C(NCCN2CCSCC2)C(=O)Nc2ccc(C(F)(F)F)cc2)cc1 (stereo unspecified)	A204	63
Nc1ccccc1NC(=O)/C=C/c1ccc(C(NCCN2CCOCC2)C(=O)Nc2ccc(C(F)(F)F)cc2)cc1 (stereo unspecified)	A204	38
Nc1ccccc1NC(=O)/C=C/c1ccc(C(NCCN2C[C@@H]3C[C@H]2CO3)C(=O)Nc2ccc(OC(F)(F)F)cc2)cc1 (stereo partly specified)	A204	63
Nc1ccccc1NC(=O)/C=C/c1ccc(C(NCCC2(O)CCOCC2)C(=O)Nc2ccc(C(F)(F)F)cc2)cc1 (stereo unspecified)	A204	68
Nc1ccccc1NC(=O)/C=C/c1ccc(C(NCCCN2CCOCC2)C(=O)Nc2ccc(C(F)(F)F)cc2)cc1 (stereo unspecified)	A204	79
CC(CNC(C(=O)Nc1ccc(-c2ccc(C3CC3)cc2)cc1)c1ccc(/C=C/C(=O)Nc2ccccc2N)cc1)N1CCOCC1 (stereo unspecified)	A204	98
CN(CCN1CCOCC1)C(C(=O)Nc1ccc(OC(F)(F)F)cc1)c1ccc(/C=C/C(=O)Nc2ccccc2N)cc1 (stereo unspecified)	A204	71
Nc1ccccc1NC(=O)/C=C/c1ccc(C(NCCN2CCCCC2)C(=O)Nc2ccc(OC(F)(F)F)cc2)cc1 (stereo unspecified)	A204	40
COCCNC(C(=O)Nc1ccc(C(F)(F)F)cc1)c1ccc(/C=C/C(=O)Nc2ccccc2N)cc1 (stereo unspecified)	A204	56

---

# System: A204
# assayMethodText: Induction of klf2 promoter gene in human A204 cells assessed as percent induction activity at 10 uM relative to SNDX-275
# Format: functional
Entries whose Activity is below 60% take true; entries at or above 60% take false.

molecule	group
Nc1ccccc1NC(=O)/C=C/c1ccc(C(NCCN2CCCCC2)C(=O)Nc2ccc(-c3ccc(C(F)(F)F)cc3F)cc2)cc1 (stereo not drawn)	false
Nc1ccccc1NC(=O)/C=C/c1ccc(C(NCCCN2CCOCC2)C(=O)Nc2ccc(C3CC3)cc2)cc1 (stereo not drawn)	false
Nc1ccccc1NC(=O)/C=C/c1ccc(C(N)C(=O)Nc2ccc(C(F)(F)F)cc2)cc1 (stereo not drawn)	true
Nc1ccccc1NC(=O)/C=C/c1ccc(C(NCc2ccco2)C(=O)Nc2ccc(C(F)(F)F)cc2)cc1 (stereo not drawn)	true
Nc1ccccc1NC(=O)/C=C/c1ccc(C(NCCN2CCCCC2)C(=O)Nc2ccc(C(F)(F)F)cc2)cc1 (stereo not drawn)	false
CC(C)c1ccc(-c2ccc(NC(=O)C(NCCN3CCCCC3)c3ccc(/C=C/C(=O)Nc4ccccc4N)cc3)cc2)cc1 (stereo not drawn)	false
Nc1ccccc1NC(=O)/C=C/c1ccc(C(C(=O)Nc2ccc(C3CC3)cc2)N2CCCC2)cc1 (stereo not drawn)	false
Nc1ccccc1NC(=O)/C=C/c1ccc(C(C(=O)Nc2ccc(C(F)(F)F)cc2)N2CCCC2)cc1 (stereo not drawn)	false

Source: ChEMBL document CHEMBL1641604
